systemName: T1, human plasmin (human, UniProt P00747 97-810)
T1 construct: Plasmin is a two-chain enzyme derived from plasminogen; also called Pm
T1 sequence (P00747 97-810 limits assumed): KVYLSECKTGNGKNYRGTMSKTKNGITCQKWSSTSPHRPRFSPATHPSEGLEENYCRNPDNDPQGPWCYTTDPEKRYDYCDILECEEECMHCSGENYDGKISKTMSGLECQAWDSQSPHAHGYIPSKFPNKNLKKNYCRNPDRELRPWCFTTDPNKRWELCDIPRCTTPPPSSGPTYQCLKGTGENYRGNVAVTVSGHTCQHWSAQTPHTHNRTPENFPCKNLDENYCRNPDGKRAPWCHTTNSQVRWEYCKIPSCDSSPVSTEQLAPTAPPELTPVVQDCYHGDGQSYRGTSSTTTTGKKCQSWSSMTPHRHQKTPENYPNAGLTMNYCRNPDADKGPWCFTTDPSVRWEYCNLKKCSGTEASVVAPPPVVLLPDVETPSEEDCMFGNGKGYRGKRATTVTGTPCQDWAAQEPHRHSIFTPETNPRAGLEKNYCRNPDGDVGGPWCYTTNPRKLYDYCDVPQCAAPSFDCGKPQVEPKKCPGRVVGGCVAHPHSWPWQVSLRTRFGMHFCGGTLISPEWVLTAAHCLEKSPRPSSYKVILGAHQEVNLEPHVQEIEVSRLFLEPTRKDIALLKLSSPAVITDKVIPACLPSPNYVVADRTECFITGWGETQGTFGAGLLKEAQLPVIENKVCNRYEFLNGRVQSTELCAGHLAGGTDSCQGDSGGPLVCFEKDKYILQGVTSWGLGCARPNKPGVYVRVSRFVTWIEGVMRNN
experimentSummary: residual activity of 3 nM plasmin (percent fractional activity by the legend; the axis is labelled % Pm Inhibition), substrate S-2251 [A]
experimentalEndpoint: IC50 (read off the curve)

Some solved entries appear below for comparison.
KD1-Y11T/L17R-KT (E. Coli) (designed binder, also called KD1DM; E. coli expressed KD1-Y11T/L17R-KT) MGSSHHHHHHSSGHIDDDDKNAEICLLPLDTGPCRARLLRYYYDRYTQSCRQFLYGGCEGNANNFYTWEACDDACWRIEK    2 to 3 nM
KD1-Y11T/L17R-KT (Pichia) (designed binder, 60-residue double mutant without tag; also called KD1DM; P. pastoris expressed KD1-Y11T/L17R-KT) NAEICLLPLDTGPCRARLLRYYYDRYTQSCRQFLYGGCEGNANNFYTWEACDDACWRIEK    2 to 3 nM
KD1-WT (other, also called Wild-type KD1; E. coli expressed KD1-WT (IIa cleavage site); not shown: N-terminal residues left from the IIa (thrombin) cleavage site) DAAQEPTGNNAEICLLPLDYGPCRALLLRYYYDRYTQSCRQFLYGGCEGNANNFYTWEACDDACWRIEKVPKV    ~9 nM

Okay, now this binder:
Would you kindly share the measured IC50 (read off the curve) for KD1-L17R-KT (designed binder, also called KD1SM; single mutant) MGSSHHHHHHSSGHIDDDDKNAEICLLPLDYGPCRARLLRYYYDRYTQSCRQFLYGGCEGNANNFYTWEACDDACWRIEK ? ~3 nM
